Source: patent US20110250130A1

The entries below are paired with their reported koff.
targetUnderTest: T1, Recombinant Human TNF-α/TNFSF1A (human, UniProt P01375 77-233)
T1 construct: Bought reagent (R&D Systems 210-TA); also called hTNF-α; huTNF-α
T1 sequence (P01375 77-233 limits assumed): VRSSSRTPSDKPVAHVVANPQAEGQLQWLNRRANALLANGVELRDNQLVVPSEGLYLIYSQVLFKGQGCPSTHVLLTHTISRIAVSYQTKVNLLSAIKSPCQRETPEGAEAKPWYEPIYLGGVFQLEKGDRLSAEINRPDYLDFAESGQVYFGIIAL
methodNotes: SPR (Biacore), antibody captured, TNF-α in solution
# value in s⁻¹; strip the unit string

Reported koff of AB246 (antibody, V domains shown, also called hMAK195VH.1a / hMAK195VL.2) VH: EVQLQESGPGLVKPSETLSLTCTVSGFSLSDYGVNWVRQPPGKGLEWLGMIWGDGSTDYDSTLKSRLTISKDNSKSQISLKLSSVTAADTAVYYCAREWHHGPVAYWGQGTLVTVSS VL: EIVMTQSPATLSLSPGERATLSCKASQAVSSAVAWYQQKPGQAPRLLIYWASTRHTGIPARFSGSGSGTDFTLTISSLQPEDFAVYYCQQHYSTPFTFGQGTKLEIK : 0.000119

# context switch: different binder, same koff
Looking up AB256 (antibody, V domains shown, also called hMAK195VH.2a / hMAK195VL.1) VH: EVQLVESGGGLVQPGGSLRLSCAVSGFTLSDYGVNWVRQAPGKGLEWLGMIWGDGSTDYDSTLKSRLTISKDNSKSTIYLQMNSLRAEDTAVYYCAREWHHGPVAYWGQGTLVTVSS VL: DIQMTQSPSSLSASVGDRVTITCKASQAVSSAVAWYQQKPGKAPKLLIYWASTRHTGVPSRFSGSGSGTDFTLTISSLQPEDFATYYCQQHYSTPFTFGQGTKLEIK , I found its koff recorded as 0.000177
